B1: PTPRD (parent)
chain: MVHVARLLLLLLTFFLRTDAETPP

variants of: B1; test: protein stability index of a GFP-peptide fusion (GPS, HEK-293T) (PSI 1-6); higher = more stable; conditions: c terminus: a fixed tail appended;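 note: lentivirally expressed fusions sorted by FACS into six bins by GFP to DsRed ratio, PSI derived from sequencing read proportions per bin multiplied by bin number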
Lab note: compare protein stability index against 2. Equal or greater, write yes. Smaller, write no.

Field: example entries. Status: answers known.
Mutation Descriptor: A5F
Class Name: yes
//
Mutation Descriptor: F14K
Class Name: no
//
Mutation Descriptor: L8D
Class Name: yes
//
Mutation Descriptor: M1I
Class Name: yes
//
Mutation Descriptor: A20D
Class Name: no

Next, consider the following variant.
INPUT: Tell me whether protein stability index is at least 2 here: L8T
OUTPUT: yes
